Test system: abdominal skin of CD male rats
methodSummary: Testing for irritation by single subcutaneous administration to rats
Format: in vivo
Design: key: — No inflammation; Amount of Inflammation: * < ** < *** < ****; Amount of Inflammation: * < ** < *** < ****; Amount of Inflammation: * < ** < *** < ****; Amount of Inflammation: * < ** < *** < ****
conditions: single subcutaneous administration 0.1 ml, 2% in DMSO and saline, one day after administration
Description: Experiment 2: Testing for Irritation by Single Subcutaneous Administration to Rats A test compound was measured and dissolved in DMSO and a saline solution in a concentration of 2%.
quantityName: Observation at Administration Site, One day after administration

Below, each entry is followed by its recorded Observation at Administration Site, One day after administration result.
In [3]: df
Out[3]:
                                   molecule  recordedvalue
0  CCC(=O)NCCN1C(=O)C(C)(C)Oc2cc(C)c(C(=O)N(C(C)C)C3CCCN(C(=O)OC(C)OC(=O)C4CCOCC4)C3)cc21 (single isomer, unassigned)              —
1  COCCCCN1C(=O)C(C)(C)Oc2cc(C(F)(F)F)c(C(=O)N(C(C)C)[C@@H]3CCCNC3)cc21.Cl [Comparative Example 1, reference compound]            ***
2  CCC(=O)NCCN1C(=O)[C@](C)(COC)Oc2cc(C)c(C(=O)N(C(C)C)[C@@H]3CCCN(C(=O)O[C@H](C)OC(=O)C(C)C)C3)cc21              —
3  CCC(=O)NCCN1C(=O)C2(CCC2)Oc2cc(C)c(C(=O)N(C(C)C)[C@@H]3CCCN(C(=O)OCc4oc(=O)oc4C)C3)cc21             **

Find the measured Observation at Administration Site, One day after administration: item CCC(=O)NCCN1C(=O)C2(CCC2)Oc2cc(C)c(C(=O)N(C(C)C)[C@@H]3CCCNC3)cc21.Cl [Comparative Example 3, reference compound] , target or system abdominal skin of CD male rats.
****

Find the measured Observation at Administration Site, One day after administration: item CCC(=O)NCCN1C(=O)C(C)(C)Oc2cc(C(F)(F)F)c(C(=O)N(C(C)C)[C@@H]3CCCNC3)cc21.Cl [Comparative Example 2, reference compound] , target or system abdominal skin of CD male rats.
****

====

Can you tell me pIC50 for the items I'm about to list?
testedSystem: Recombinant human renin (Homo sapiens)
Sequence (P00797 67-406): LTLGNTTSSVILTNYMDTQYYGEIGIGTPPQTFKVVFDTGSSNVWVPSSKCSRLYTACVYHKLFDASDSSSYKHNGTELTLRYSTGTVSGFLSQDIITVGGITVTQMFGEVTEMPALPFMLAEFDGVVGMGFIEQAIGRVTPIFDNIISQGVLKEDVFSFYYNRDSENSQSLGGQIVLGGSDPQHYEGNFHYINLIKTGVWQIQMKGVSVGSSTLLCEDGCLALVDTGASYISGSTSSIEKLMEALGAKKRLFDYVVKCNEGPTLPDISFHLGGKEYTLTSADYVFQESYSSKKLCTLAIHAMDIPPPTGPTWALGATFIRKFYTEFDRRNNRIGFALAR
methodSummary: In vitro renin inhibitory activity assay
conditions: recombinant human renin 4.2 ng/mL, substrate 4 μM, 37° C., one hour, pH 7.4
FYI, pIC50 means -log10 of a concentration in mol per litre.

Give the measured pIC50 of CCC(=O)NCCN1C(=O)C(C)(C)Oc2cc(C)c(C(=O)N(C(C)C)[C@@H]3CCCN(C(=O)O[C@@H](C)OC(=O)C(C)C)C3)cc21 .
5.91

Give the measured pIC50 of Cc1cc2c(cc1C(=O)N(C(C)C)[C@@H]1CCCN(C(=O)OCc3oc(=O)oc3C)C1)N(CCNC(=O)C(F)F)C(=O)C1(CC1)O2 .
8.44

Give the measured pIC50 of CCC(=O)NCCN1C(=O)C(C)(C)Sc2cc(C(F)(F)F)c(C(=O)N(C(C)C)[C@@H]3CCCN(C(=O)OCc4oc(=O)oc4C)C3)cc21 .
8.66

Hello, the source for this data is patent US8658639B2, in case you need it.
